Consider the following IC50 values measured on JAK2 (Homo sapiens, UniProt O60674).
Sequence (O60674 whole entry): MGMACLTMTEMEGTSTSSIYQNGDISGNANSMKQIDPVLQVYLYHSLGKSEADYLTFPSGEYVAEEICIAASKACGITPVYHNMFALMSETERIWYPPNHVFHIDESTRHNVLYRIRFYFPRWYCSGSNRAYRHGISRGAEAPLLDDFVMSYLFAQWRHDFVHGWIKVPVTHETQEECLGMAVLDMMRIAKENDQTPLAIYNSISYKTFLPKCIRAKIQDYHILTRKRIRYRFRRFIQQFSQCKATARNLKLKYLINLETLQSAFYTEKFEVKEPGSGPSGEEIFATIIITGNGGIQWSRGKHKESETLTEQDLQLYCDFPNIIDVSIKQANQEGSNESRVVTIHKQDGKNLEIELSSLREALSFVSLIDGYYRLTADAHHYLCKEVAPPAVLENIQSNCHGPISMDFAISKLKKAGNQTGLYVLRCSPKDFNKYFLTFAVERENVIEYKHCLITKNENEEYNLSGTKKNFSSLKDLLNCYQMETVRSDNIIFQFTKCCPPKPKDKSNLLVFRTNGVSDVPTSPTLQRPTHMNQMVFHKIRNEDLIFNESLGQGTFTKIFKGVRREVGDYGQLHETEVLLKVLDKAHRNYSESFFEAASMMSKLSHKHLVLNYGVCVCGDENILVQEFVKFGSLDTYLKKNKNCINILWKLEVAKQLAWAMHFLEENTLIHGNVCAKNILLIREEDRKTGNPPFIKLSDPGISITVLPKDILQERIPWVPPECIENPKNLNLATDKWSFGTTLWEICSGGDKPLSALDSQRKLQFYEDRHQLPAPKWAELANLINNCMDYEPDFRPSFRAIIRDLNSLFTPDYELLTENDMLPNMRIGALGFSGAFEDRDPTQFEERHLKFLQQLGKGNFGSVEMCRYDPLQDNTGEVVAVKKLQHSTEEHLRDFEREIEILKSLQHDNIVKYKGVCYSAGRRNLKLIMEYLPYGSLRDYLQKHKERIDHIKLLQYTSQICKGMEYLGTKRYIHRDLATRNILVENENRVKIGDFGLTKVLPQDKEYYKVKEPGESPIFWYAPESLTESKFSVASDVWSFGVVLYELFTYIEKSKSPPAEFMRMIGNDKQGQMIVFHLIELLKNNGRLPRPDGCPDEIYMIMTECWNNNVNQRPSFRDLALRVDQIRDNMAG
readout label: IC50 (nM)

- compound: "Cc1cnc(Nc2ccc(N3CCN(C)CC3)cc2)nc1Nc1ccc(Cl)c(NS(=O)(=O)C(C)(C)C)c1 [drawing 109]"
  study system: "JAK2 (Homo sapiens, UniProt O60674)"
  readout label: "IC50"
  unit symbol: "nM"
  number: 11.2

A: COc1cc(Nc2nc(Nc3ccc(N4CCN(C)CC4)cc3)ncc2C)ccc1Cl
B: Cc1cnc(Nc2ccc(N3CCN(C)CC3)c(F)c2)nc1Nc1cccc(NS(=O)(=O)C(C)(C)C)c1
Enquiry: Would you mind telling me which has the lower recorded IC50 between A and B ? Answer format: the label of the selected item.
Return: A
